Assay: In vitro stability assay in human liver microsome
Type: in vitro ADME
Conditions: human liver microsomes, compound 2.0 nM, with or without NADPH, within 60 minutes of incubation; read-out: Human liver microsome t1/2
quantity measured: half-life at 2 nM (h)

{"compound": "Cc1nn(-c2cncc(C(F)F)c2)c(C)c1-c1cc(N2CCOC[C@H]2C)nc2c(-c3ccn[nH]3)cnn12 [Compound A10]", "experimental value": 0.6}
{"compound": "Cc1nn(-c2cncc(F)c2)c(C)c1-c1cc(N2CCOC[C@H]2C)nc2c(-c3ccn[nH]3)cnn12 [Compound A9]", "experimental value": 1.43}

----------
Molecular target: UniProtKB P78527
pIC50: −log10 of the molar value.
Recorded pIC50, one value per entry.

{"compound": "Cc1nn(-c2cncc(C(F)F)c2)c(C)c1-c1cc(N2CCOC[C@H]2C)nc2c(-c3ccn[nH]3)cnn12 [Compound A10]", "pIC50": 5.90}
{"compound": "Cc1nn(-c2cncc(F)c2)c(C)c1-c1cc(N2CCOC[C@H]2C)nc2c(-c3ccn[nH]3)cnn12 [Compound A9]", "pIC50": 6.52}

----------
Experiment: In vivo pharmacokinetics in male ICR mice, oral gavage
Conditions: mouse, 10 mg/kg, plasma

{"smiles record": "Cc1nn(-c2cncc(Cl)c2)c(C)c1-c1cc(N2CCOC[C@H]2C)nc2c(-c3ccn[nH]3)cnn12", "AUC": "8330 ng·h/mL"}
{"smiles record": "Cc1nn(-c2cncc(C(F)F)c2)c(C)c1-c1cc(N2CCOC[C@H]2C)nc2c(-c3ccn[nH]3)cnn12", "AUC": "14300 ng·h/mL"}
{"smiles record": "Cc1nn(-c2cncc(F)c2)c(C)c1-c1cc(N2CCOC[C@H]2C)nc2c(-c3ccn[nH]3)cnn12", "AUC": "6950 ng·h/mL"}

----------
Recorded half-life at 2 nM, one value per entry.
Assay: In vitro stability assay in mouse liver microsome
Format: in vitro ADME
Details: mouse liver microsomes, compound 2.0 nM, with or without NADPH, within 60 minutes of incubation; read-out: Mouse liver microsome t1/2

{"smiles record": "Cc1nn(-c2cncc(C(F)F)c2)c(C)c1-c1cc(N2CCOC[C@H]2C)nc2c(-c3ccn[nH]3)cnn12", "half-life at 2 nM, h": 2.7}
{"smiles record": "Cc1nn(-c2cncc(F)c2)c(C)c1-c1cc(N2CCOC[C@H]2C)nc2c(-c3ccn[nH]3)cnn12", "half-life at 2 nM, h": 3.63}

----------
Biological target: mTOR (Homo sapiens (Human), UniProt P42345)
pIC50: −log10 of the molar value.

{"molecule": "Cc1nn(-c2cncc(F)c2)c(C)c1-c1cc(N2CCOC[C@H]2C)nc2c(-c3ccn[nH]3)cnn12 [Compound A9]", "pIC50": 5.74}

----------
Recorded Tmax, one value per entry.
Assay: In vivo pharmacokinetics in male ICR mice, oral gavage
Details: mouse, 10 mg/kg, plasma
quantity measured: Tmax (min)

{"smiles record": "Cc1nn(-c2cncc(C(F)F)c2)c(C)c1-c1cc(N2CCOC[C@H]2C)nc2c(-c3ccn[nH]3)cnn12", "experimental value": 15}
{"smiles record": "Cc1nn(-c2cncc(F)c2)c(C)c1-c1cc(N2CCOC[C@H]2C)nc2c(-c3ccn[nH]3)cnn12", "experimental value": 15}
{"smiles record": "Cc1nn(-c2cncc(Cl)c2)c(C)c1-c1cc(N2CCOC[C@H]2C)nc2c(-c3ccn[nH]3)cnn12", "experimental value": 19.8}
